Tested on: benzodiazepine receptors
Method description: Displacement of tritiated diazepam, benzodiazepine receptor binding (synaptosome fraction of cerebral cortex)
Experimental setup: displacement of 2 nM tritiated diazepam, rat cortex synaptosomes, pH 7.4, 0°C, 20 min; read-out: Affinity to BZP Receptors, Ki
pKi: −log10 of the molar value.
Entry flag: Condition met if pKi reaches 8; Condition not met if it does not.

# Compound, Tested on, Assigned label
records = [
    ("O=C1CC2CCc3sc(Br)cc3C2=NN1c1ccccc1 (stereo not drawn) [Example 4]", "benzodiazepine receptors", "Condition not met"),
    ("O=C1CC2CCc3sc(Br)cc3C2=NN1c1ccccn1 (stereo not drawn) [Example 7]", "benzodiazepine receptors", "Condition not met"),
]

Q: Identify whether the reported pKi of the following compound is 8 or greater: O=C1CC2CCc3sccc3C2=NN1c1ccccn1 (stereo not drawn) [Example 3]
Result: Condition not met

Q: Identify whether the reported pKi of the following compound is 8 or greater: COc1ccc(N2N=C3c4cc(Br)sc4CCC3CC2=O)cc1 (stereo not drawn) [Example 11]
Result: Condition met
